The reported numbers originate from patent US20240327356A1.

compounds and their reported EC50
- studySystem: KRAS^G12D-FMe.RAF1^RBDCRD complex (Homo sapiens, UniProt P01116, G12D)
- testName: SHG assay: binding to bilayer-tethered KRAS G12D/RAF1 complex
- conditionNotes: GppNHp-loaded complex on PS bilayer; compound 0.027-40 μM, monitored over 60 min

Example cases with answers are listed next.
# compound, EC50
measured = [
    ("NCC1CCN(c2nc(-c3ccc(Cl)c(Cl)c3)ncc2C2=CCNC2)C1 (centres unmarked)", "1 to 10 µM"),
    ("Cc1ccc(-c2ncc(CNC(=O)C3(F)CC3)c(N3CCC(CN)C3)n2)cc1Cl (centres unmarked)", "1 to 10 µM"),
]

Look up EC50 for this compound: Cc1cc(-c2ncc(CNC(=O)C3(C#N)CC3)c(N3CCC(CN)C3)n2)ccc1Cl (centres unmarked) 10 to 50 µM

Another compound to look at: Cc1ccc(-c2ncc(CNC(=O)C3(C#N)CC3)c(N3CC[C@H](N)C3)n2)cc1Cl 1 to 10 µM

Another compound to look at: N[C@@H]1CN(c2nc(-c3ccc(Cl)cc3NC(=O)C3(F)CC3)ncc2C2=CCNC2)C[C@H]1O 1 to 10 µM
